# TARGET_ENTITY: Opioid receptor (Mus musculus, UniProt P42866+P32300+P33534)
# PROTOCOL_DETAILS: Compound was tested for binding affinity on intact HEK cells using [3H]diprenorphine as radioligand singly expressed with delta or kappa receptor
# Format: cell-based, Homo sapiens
# COND: hek293
Consider the following compounds; for each one, report its Ki.
Give bare numbers, in nM.

Recorded Ki, per entry:
{"COMPOUND": "O=C(CCC(=O)NCC(=O)NCC(=O)Nc1cccc2c3c([nH]c12)[C@@H]1Oc2c(O)ccc4c2C12CCN(CC1CC1)C(C4)[C@]2(O)C3)NCC(=O)NCC(=O)NCCCNC(=O)c1cccc2c3c([nH]c12)[C@@H]1Oc2c(O)ccc4c2C12CCN(CC1CC1)C(C4)[C@]2(O)C3 (some centres undefined)", "VALUE_REPORTED": 199}
{"COMPOUND": "N/C(=N\\CCCNC(=O)CNC(=O)CNC(=O)CCC(=O)NCC(=O)NCC(=O)Nc1ccc2[nH]c3c(c2c1)C[C@]1(O)C2Cc4ccc(O)c5c4C1(CCN2CC1CC1)[C@@H]3O5)Nc1ccc2[nH]c3c(c2c1)C[C@]1(O)C2Cc4ccc(O)c5c4C1(CCN2CC1CC1)[C@@H]3O5 (some centres undefined)", "VALUE_REPORTED": 54.8}
{"COMPOUND": "NC(=NCCCCNC(=O)CNC(=O)CNC(=O)CCC(=O)NCC(=O)NCC(=O)Nc1cccc2c3c([nH]c12)[C@@H]1Oc2c(O)ccc4c2C12CCN(CC1CC1)C(C4)[C@]2(O)C3)Nc1ccc2[nH]c3c(c2c1)C[C@@]1(O)C2Cc4ccc(O)c5c4C1(CCN2CC1CC1)[C@H]3O5 (some centres undefined)", "VALUE_REPORTED": 1.1}

Please report the recorded Ki for N/C(=N\CCCCCNC(=O)CNC(=O)CNC(=O)CCC(=O)NCC(=O)NCC(=O)Nc1cccc2c3c([nH]c12)[C@@H]1Oc2c(O)ccc4c2C12CCN(CC1CC1)C(C4)[C@]2(O)C3)Nc1ccc2[nH]c3c(c2c1)C[C@@]1(O)C2Cc4ccc(O)c5c4C1(CCN2CC1CC1)[C@H]3O5 (some centres undefined) .
3.3
